tested on: SK-MEL-5 melanoma; assay: NCI tumour cell line growth inhibition, 48 h

{"compound": "COc1ccc(C(=C2C(=O)OC(=O)C2=C(C)C)c2ccc(OC)cc2)cc1", "units.label": "µM", "censor.symbol": ">", "TGI": 100}
{"compound": "CCCCCCCCCCCCNC(=O)[C@H]1CSC(c2ccsc2)N1 (some centres undefined)", "units.label": "µM", "censor.symbol": "=", "TGI": 5.22}
{"compound": "CC1=NN(c2cccc(Cl)c2)C2(C1=Cc1ccc(N(C)C)cc1)C(Cl)C(=O)N2c1nc2ccccc2s1 (centres undefined)", "units.label": "µM", "censor.symbol": ">", "TGI": 100}
{"compound": "N#Cc1c(-c2ccc(Cl)cc2)csc1NC(=O)Nc1cccc(C(F)(F)F)c1", "units.label": "µM", "censor.symbol": "=", "TGI": 3.18}
{"compound": "O=C(O)CCSc1ncnc2nc[nH]c12", "units.label": "µM", "censor.symbol": ">", "TGI": 100}
{"compound": "CCOC(=O)c1c(-c2ccc(OC)cc2)c(C#N)c(=S)n(C2OC(CO)C(O)C(O)C2O)c1C (centres undefined)", "units.label": "µM", "censor.symbol": ">", "TGI": 100}
{"compound": "O=C(O)C(Cc1c[nH]c2ccccc12)N1C(=O)c2ccccc2C1=O (centres undefined)", "units.label": "µM", "censor.symbol": ">", "TGI": 100}
{"compound": "COc1ccccc1-c1nccc(COc2ccccc2C[C@@H](Oc2ncnc3sc(-c4ccc(F)cc4)c(-c4ccc(OCCN5CCN(C)CC5)c(Cl)c4C)c23)C(=O)O)n1", "units.label": "µM", "censor.symbol": "=", "TGI": 3.12}
{"compound": "C(/C=C/N1CCCC1)=C\\c1nc(N2CCCC2)c2ccccc2n1", "units.label": "µM", "censor.symbol": "=", "TGI": 33.3}

###

Listed molecules paired with reported TGI
system: SK-MEL-2 melanoma; assay: NCI tumour cell line growth inhibition, 48 h

{"molecule": "NC1(C(=O)O)CSSC1", "TGI": "7.95 µM"}
{"molecule": "O=c1n(CCCN2CCOCC2)nc2n1-c1ccc3ccccc3c1SC2", "TGI": "> 100 µM"}
{"molecule": "O=C(/C(=N/Nc1cn[nH]c(=O)c1Cl)c1ccccc1)c1ccccc1", "TGI": "> 100 µM"}
{"molecule": "CCOc1cccc(/C=N/NC(=O)Cc2ccc(Nc3ccnc(C(F)(F)F)c3)cc2)c1O", "TGI": "45 µM"}
{"molecule": "CCn1c(-c2nonc2N)nc2c(C#CC(C)(C)O)ncc(OC[C@@H]3CCCN3)c21", "TGI": "15 µM"}
{"molecule": "C=C1C(=O)C23CC1CCC2C12CO[C@@]3(O)[C@@H](O)C1C(C)(C)C=CC2=O (stereo partly specified)", "TGI": "1.99 µM"}

###

system: UO-31 renal; assay: NCI tumour cell line growth inhibition, 48 h

{"compound": "Cc1cc2c(-c3nc4ccccn4c3NC34CC5CC(CC(C5)C3)C4)c(O)c(O)cc2c(O)c1-c1c(C)cc2c(-c3nc4ccccn4c3NC34CC5CC(CC(C5)C3)C4)c(O)c(O)cc2c1O", "TGI": "4.16 µM"}
{"compound": "CN1C(=O)CC2(C)c3cc(C=O)ccc3N(C)C12 (centres undefined)", "TGI": "> 100 µM"}
{"compound": "CC1CCc2sc3[nH]c(=S)n(C)c(=O)c3c2C1 (centres undefined)", "TGI": "33.6 µM"}
{"compound": "CC(C)(C)c1cc(C(=O)O)c(C(c2ccccc2)c2ccccc2C(=O)O)c(C(=O)O)c1 (centres undefined)", "TGI": "> 100 µM"}
{"compound": "Cc1nn(C(=O)c2ccccc2O)c2c1C(c1ccc([N+](=O)[O-])cc1)SC(N)=N2 (centres undefined)", "TGI": "> 10 µM"}
{"compound": "CCCCCCCCCCCCCCCCCCNC(=O)[C@H]1CSC(c2ccc(F)c(OC)c2)N1 (some centres undefined)", "TGI": "> 50 µM"}
{"compound": "Fc1cccc(F)c1C1SCc2nc3cc(Cl)ccc3n21 (centres undefined)", "TGI": "> 47.2 µM"}
{"compound": "O=C(Nc1nc2ccc(F)cc2s1)c1cccnc1Nc1ccc(Cl)cc1Cl", "TGI": "> 24.4 µM"}
{"compound": "O=C1c2cccnc2C(=O)c2c1nc1ccccc1c2-c1ccc2c3c(nc4ccccc42)C(=O)c2cccnc2-c13", "TGI": "4.62 µM"}

###

system: OVCAR-4 ovarian; assay: NCI tumour cell line growth inhibition, 48 h; in the data active means GI50 below about 0.43 µM; inactive means the rest
Labels: active, inactive

{"compound": "O=c1c2ccccc2c(=O)c2c1sc1c(=O)c3ccc(O)cc3c(=O)c12", "label.class": "inactive"}
{"compound": "CCCCCCCCCCCCNC(=O)[C@H]1CSC(c2ccsc2)N1 (stereo not given in full)", "label.class": "inactive"}
{"compound": "COC12C=C/C(=C(/C(=O)OCc3csc(SC)n3)C(=O)CCCCCCCCC3(OC)C=C/C(=C(/C(=O)OCc4cnc(SC)s4)C(=O)CCCCCCCC1)O3)O2 (stereo not given)", "label.class": "inactive"}
{"compound": "C#CCn1cc(C=C2C(=O)NC(=S)NC2=O)c2cc(Cl)ccc21", "label.class": "inactive"}
{"compound": "NC1(C(=O)O)CSSC1", "label.class": "inactive"}
{"compound": "CC(C)(C)OC(=O)n1c(Cl)c(C(=O)N=C=S)c2ccccc21", "label.class": "inactive"}
{"compound": "COc1ccccc1-c1nccc(COc2ccccc2C[C@@H](Oc2ncnc3sc(-c4ccc(F)cc4)c(-c4ccc(OCCN5CCN(C)CC5)c(Cl)c4C)c23)C(=O)O)n1", "label.class": "inactive"}
{"compound": "COc1ccc(-c2nn3ncccc3c2-c2ccnc(Nc3cccc(C(F)(F)F)c3)n2)cc1", "label.class": "inactive"}
{"compound": "COc1cc(/C=C2\\C(=O)Nc3ccc(Br)cc32)cc(OC)c1OC", "label.class": "inactive"}
{"compound": "Cc1ccc(S(=O)c2ccc([N+](=O)[O-])c3nonc23)cc1 (stereo not given)", "label.class": "inactive"}
{"compound": "Cc1cc(C(=O)Nc2cc(Nc3ncccc3-c3ncnc4nc[nH]c34)ccc2F)cc(C(C)(C)C#N)c1", "label.class": "inactive"}
{"compound": "Cc1ccc(NCCNCC(O)CO)c2c(=O)c3ccccc3sc12 (stereo not given)", "label.class": "inactive"}
{"compound": "CCOC(=O)C(=Cc1c(-c2ccccc2)[nH]c2ccccc12)C(=O)OCC", "label.class": "inactive"}
{"compound": "N#CC1=C(N)Oc2c(sc3c(Br)cccc23)C1c1ccc(F)cc1 (stereo not given)", "label.class": "inactive"}
{"compound": "NC(=O)c1c(NC(=O)c2cccc(C(F)(F)F)c2)sc2c1CCC(=O)C2", "label.class": "active"}

###

test system: A498 renal; test: NCI tumour cell line growth inhibition, 48 h; in the data active means GI50 below about 0.43 µM; inactive means the rest
Labels: active, inactive

{"compound": "CC(=O)c1c(Nc2ccc(F)c(F)c2F)[nH]c2c(F)cc(F)cc2c1=O", "label.class": "active"}
{"compound": "COc1ccc(-c2cn(-c3cc(OC)c(OC)c(OC)c3)c(=O)n2-c2ccccc2)cc1", "label.class": "inactive"}
{"compound": "Cc1ccc2c(C(C[N+](=O)[O-])c3ccco3)c(-c3ccccc3)[nH]c2c1 (stereo not given)", "label.class": "inactive"}
{"compound": "Cc1ccc(S(=O)c2ccc([N+](=O)[O-])c3nonc23)cc1 (stereo not given)", "label.class": "inactive"}
{"compound": "O=C1c2c(O)ccc(O)c2C(=O)c2c(NCCNCCO)ccc(NCCNCCO)c21", "label.class": "active"}
{"compound": "CCCCCCCCCCCCNC(=O)[C@H]1CSC(c2ccsc2)N1 (stereo not given in full)", "label.class": "inactive"}
{"compound": "COc1ccc2nc3cc(Cl)ccc3c(Nc3ccc(O)c(CN4CCCC4)c3)c2c1", "label.class": "inactive"}
{"compound": "COc1ccc(CNC(=O)c2ccc(-c3cc(-c4nnc(C)o4)ccc3C)cc2)cc1", "label.class": "inactive"}
{"compound": "Cc1cc(S(N)(=O)=O)c(S/C(=N\\NS(=O)(=O)c2ccccc2)c2ccc(Cl)c(Cl)c2)cc1Cl", "label.class": "inactive"}
{"compound": "CC(=O)Nc1ccc2c(c1)CN1C(=O)c3ccccc3C1=N2", "label.class": "inactive"}

###

Listed compounds paired with reported GI50
system: RPMI-8226 leukemia; test: NCI tumour cell line growth inhibition, 48 h

{"compound": "COc1ccc(-c2cn(-c3cc(OC)c(OC)c(OC)c3)c(=O)n2-c2ccccc2)cc1", "GI50": "> 100 µM"}
{"compound": "CN1CCN(CCCOc2ccc3ncnc(Nc4ccc(Oc5cccc(F)c5)c(Cl)c4)c3c2)CC1", "GI50": "1.58 µM"}
{"compound": "CC(C)(C)OC(=O)n1c(Cl)c(C(=O)N=C=S)c2ccccc21", "GI50": "24.4 µM"}
{"compound": "CCOc1cccc(/C=N/NC(=O)Cc2ccc(Nc3ccnc(C(F)(F)F)c3)cc2)c1O", "GI50": "0.519 µM"}
{"compound": "O=C1C2=C(Nc3cc([N+](=O)[O-])ccc3N2)OC1c1ccc(C2OC3=C(Nc4ccc([N+](=O)[O-])cc4N3)C2=O)cc1 (configuration not stated)", "GI50": "53.6 µM"}
{"compound": "CC(=O)Nc1ccc2c(c1)CN1C(=O)c3ccccc3C1=N2", "GI50": "> 100 µM"}
{"compound": "O=c1c2ccccc2c(=O)c2c1sc1c(=O)c3ccc(O)cc3c(=O)c12", "GI50": "1.42 µM"}
{"compound": "O=C(Nc1nc2ccc(F)cc2s1)c1cccnc1Nc1ccc(Cl)cc1Cl", "GI50": "1.49 µM"}
{"compound": "CCCC(=O)Nc1cn(COC)c(C(=O)N2C[C@H]3C[C@@]34C2=CC(=O)c2[nH]cc(C)c24)n1", "GI50": "3.21 µM"}
{"compound": "O=C(CCl)Nc1ccc(C(=O)N/N=C/c2ccc(Cl)cc2)cc1", "GI50": "9.09 µM"}
{"compound": "COc1cc(/C=C2\\C(=O)Nc3ccc(Br)cc32)cc(OC)c1OC", "GI50": "1.31 µM"}
{"compound": "COc1ccc(-c2nn(-c3cccc(Cl)c3)cc2/C=C2\\C(=N)N(c3ccccc3)N=C2N)cc1", "GI50": "0.993 µM"}
